Hey, just so you know, these numbers are from patent US20250221988A1.

test system: MV4;11 cells; test: Cell viability assay (CellTiter-Glo) in MV4;11 cells; type: cell-based; conditions: Homo sapiens, MV4-11, 72 h, read-out: MV4; 11 IC50 (nM)
# maps each entry to its IC50
quantity.measured: IC50

{"columns": ["molecule", "quantity.measured", "result"],
 "data": [
  ["O=C1CCC(N2C(=O)c3ccc(NC[C@H]4C[C@H](n5cc(-c6cccc(N7CCC7)c6)c(C6CC6)n5)C4)cc3C2=O)C(=O)N1 (stereo partly drawn)", "IC50", "100 to 1000 nM"],
  ["O=C1CCC(N2C(=O)c3ccc(NC[C@H]4C[C@H](n5cc(NC6CCCCC6)c(C6CC6)n5)C4)cc3C2=O)C(=O)N1 (stereo partly drawn)", "IC50", "10 to 100 nM"],
  ["O=C1CCC(N2C(=O)c3ccc(NC[C@H]4C[C@H](n5cc(-n6ccc7ccccc76)c(C6CC6)n5)C4)cc3C2=O)C(=O)N1 (stereo partly drawn)", "IC50", "10 to 100 nM"]
]}
